Data provenance: paper PMC6754446

Here the recorded stoichiometry N is given for each entry.
target: OTULINcat (aa 80-352) (human, UniProt Q96BN8 80-352); assay: ITC; PDZ variant (150-450 µM) in the syringe, OTULINcat variant (20-30 µM) in the cell; 25 °C; 20 mM HEPES pH 7.4, 200 mM NaCl, 2 mM TCEP; single-site binding model; settings: both partners purified
Sequence (Q96BN8 80-352): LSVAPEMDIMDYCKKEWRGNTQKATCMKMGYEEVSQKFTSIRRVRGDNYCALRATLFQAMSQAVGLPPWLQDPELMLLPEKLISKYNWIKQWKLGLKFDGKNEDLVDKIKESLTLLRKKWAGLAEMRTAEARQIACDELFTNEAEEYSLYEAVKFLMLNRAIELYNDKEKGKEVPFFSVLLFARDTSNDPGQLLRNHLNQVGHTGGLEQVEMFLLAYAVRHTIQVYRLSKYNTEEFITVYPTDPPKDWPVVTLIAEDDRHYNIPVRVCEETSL
The response must contain the number and no unit.

Solved entries (count: 4):
BINDER: NHERF1 PDZ2 (150-235) (domain or fragment, UniProt O14745 150-235, looked up, The printed DNA (258 nt) fits 86 residues; source: E. coli, purified analogous to SNX27PDZ (pOPIN-S vector)) LRPRLCTMKKGPSGYGFNLHSDKSKPGQFIRSVDPDSPAEASGLRAQDRIVEVNGVCMEGKQHGDVVSAIRAGGDETKLLVVDRET
stoichiometry N: 1.14

BINDER: LNX2 PDZ3 (465-560) (domain or fragment, UniProt Q8N448 465-560, looked up, LNX2, third PDZ domain, residues 465-560; The printed DNA (288 nt) fits 96 residues; source: E. coli, purified analogous to SNX27PDZ (pOPIN-S vector)) QEKHITVKKEPHESLGMTVAGGRGSKSGELPIFVTSVPPHGCLARDGRIKRGDVLLNINGIDLTNLSHSEAVAMLKASAASPAVALKALEVQIVEE
stoichiometry N: 0.87

BINDER: Syntenin1 PDZ1 (108-196) (domain or fragment, UniProt Q9JI92 108-196, looked up, Syntenin-1, first PDZ domain, residues 108-196; The printed DNA (267 nt) fits 89 residues; source: E. coli, purified analogous to SNX27PDZ (pOPIN-S vector)) AEIKQGIREVILCKDQDGKIGLRLKSVDNGIFVQLVQANSPASLVGLRFGDQVLQINGENCAGWSSDKAHKVLKQAFGEKITMTIRDRP
stoichiometry N: 0.38

BINDER: RhoGEF PDZ domain (41-123) (domain or fragment, UniProt O15085 41-123, looked up, RhoGEF, PDZ domain, residues 41-123; The printed DNA (249 nt) fits 83 residues; source: E. coli, purified analogous to SNX27PDZ (pOPIN-S vector)) TGLVQRCVIIQKDQHGFGFTVSGDRIVLVQSVRPGGAAMKAGVKEGDRIIKVNGTMVTNSSHLEVVKLIKSGAYVALTLLGSS
stoichiometry N: 0.96

Kindly review the next binder as well.
Inquiry: For the binder PSD95 PDZ2 (155-249) (domain or fragment, UniProt P78352 155-249, looked up, PSD95, second PDZ domain, residues 155-249; The printed DNA (285 nt) fits 95 residues; source: E. coli, purified analogous to SNX27PDZ (pOPIN-S vector)) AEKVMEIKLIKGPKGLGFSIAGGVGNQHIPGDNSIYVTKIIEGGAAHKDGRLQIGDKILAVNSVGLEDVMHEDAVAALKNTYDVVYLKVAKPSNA , give its reported stoichiometry N.
Reply text: 0.91
